Quick reference for Times of activities in 2 h after drug administration/10 min among some molecules
- Test system: Kunming mice
- testDescription: Influence on autonomic activity of normal mice (ZIL-2 mice autonomic activity meter, counts within 10 min)
- Assay type: in vivo
- particulars: intragastric, 50 mg/kg, 2 h after administration, x ± s, n = 10

Recorded results for 2 molecules are shown here.
1. COc1ccc(-c2cc(=O)c3cc(OC)c(OC)c(OC)c3o2)cc1OC [Example 27]; 193.2 ± 56.4 /10 min
2. COc1ccc(C2CC(=O)c3c(OC)c(OC)c(OC)c(OC)c3O2)cc1 (stereo not shown) [Example 47, 5,6,7,8,4′-penta methoxyl-flavanone]; 278.6 ± 47.5 /10 min

Q) Form field: reported Times of activities in 2 h after drug administration/10 min of CCc1cc(C2CC(=O)c3cc([N+](=O)[O-])c(SC#N)c(C4CCNC4)c3O2)ccc1C(=O)c1ccccc1 (stereo not shown) [Example 54]
A) 240.2 ± 62.6 /10 min

Q) Form field: reported Times of activities in 2 h after drug administration/10 min of COc1ccc(-c2cc(=O)c3c(OC)cc(O)cc3o2)cc1OC [Example 5, 7-hydroxyl-5,3′,4′-trimethoxyl-flavone]
A) 190.2 ± 56.8 /10 min

Q) Form field: reported Times of activities in 2 h after drug administration/10 min of COc1cc(C2Oc3c(cc(OC)c(OC)c3OC)C(=O)C2OC)c(O)c(OC)c1OC (stereo not shown) [Example 69]
A) 251.7 ± 39.4 /10 min

Q) Form field: reported Times of activities in 2 h after drug administration/10 min of COc1ccc(C2CC(=O)c3c(O)c(OC)c(OC)c(OC)c3O2)cc1 (stereo not shown) [Example 42]
A) 145.3 ± 41.3 /10 min

Q) Form field: reported Times of activities in 2 h after drug administration/10 min of CCCc1cc(O)cc2c1C(=O)CC(c1ccc(-c3ccccc3)c([N+](=O)[O-])c1)O2 (stereo not shown) [Example 70]
A) 141.0 ± 46.3 /10 min

Data credit: patent US9669003B2
